# subject_of_test: CYP1B1 (Homo sapiens, UniProt Q16678, L432V)
# Sequence (Q16678 1-543 L432V): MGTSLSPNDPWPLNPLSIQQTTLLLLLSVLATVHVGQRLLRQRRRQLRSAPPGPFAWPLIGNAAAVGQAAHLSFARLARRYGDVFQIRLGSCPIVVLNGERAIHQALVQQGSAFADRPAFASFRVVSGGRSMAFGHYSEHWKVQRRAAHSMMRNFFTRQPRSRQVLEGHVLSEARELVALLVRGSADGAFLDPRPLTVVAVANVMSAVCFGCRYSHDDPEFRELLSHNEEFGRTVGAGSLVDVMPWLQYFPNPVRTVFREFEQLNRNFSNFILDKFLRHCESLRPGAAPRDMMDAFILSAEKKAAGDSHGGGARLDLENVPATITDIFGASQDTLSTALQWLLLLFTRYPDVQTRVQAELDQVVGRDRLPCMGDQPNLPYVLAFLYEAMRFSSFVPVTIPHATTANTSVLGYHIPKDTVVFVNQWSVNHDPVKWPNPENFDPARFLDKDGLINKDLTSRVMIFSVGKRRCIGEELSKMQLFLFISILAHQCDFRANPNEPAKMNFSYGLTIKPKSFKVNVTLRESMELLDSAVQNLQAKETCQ
# run_description: Inhibition of CYP1B1-dependent EROD activity, E. coli membranes co-expressing CYP1B1 and CPR
# conditions: n = 3
pKi: −log10 of the molar value.
readout_type: pKi

- compound: "COc1c2occc2cc2ccc(=O)oc12 [8-MOP, 8-methoxypsoralen]"
  experimental_value: 5.45
